target-under-test: T1, human CCR5 receptor (hCCR5) (human, UniProt P51681 1-352)
T1 construct: whole, on cells; also called synCCR5; chemokine co-receptor CCR5
T1 sequence (P51681 whole entry): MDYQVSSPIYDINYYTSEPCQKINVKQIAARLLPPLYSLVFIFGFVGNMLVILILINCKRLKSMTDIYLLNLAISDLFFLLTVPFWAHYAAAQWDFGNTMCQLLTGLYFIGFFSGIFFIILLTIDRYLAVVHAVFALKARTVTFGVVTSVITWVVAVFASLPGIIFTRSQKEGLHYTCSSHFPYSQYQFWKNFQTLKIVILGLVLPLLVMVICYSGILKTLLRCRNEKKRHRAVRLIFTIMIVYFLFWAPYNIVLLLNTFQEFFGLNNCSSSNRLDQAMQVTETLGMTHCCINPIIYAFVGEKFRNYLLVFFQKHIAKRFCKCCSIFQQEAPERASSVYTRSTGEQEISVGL
test-protocol: inhibition of gp120CM235/sCD4 binding to Cf2Th/synR5 cells (FIG. 4B)
reported-property: pIC50
Just so you know, pIC50 here is -log10 of the concentration in molar units; reply with that number alone.

Q: Please report the recorded pIC50 for MIP-1β (ligand, also called MIP-β) APMGSDPPTACCFSYTARKLPRNFVVDYYETSSLCSQPAVVFQTKRSKQVCADPSESWVQEYVYDLELN .
Ans: 8.74
